# System: Leishmania donovani
# procedure summary: Antileishmanial activity against Leishmania donovani MHOM/IN/1983/AG83 promastigotes infected BALB/c mouse assessed as liver weight at 12.5 mg/kg, ip administered two times per week for 4 weeks
# Format: functional
# condition details: route intraperitoneal
Overview of recorded Activity for various molecules
Please respond with the number in mg and leave the unit unwritten.

Some solved cases for reference:
Query :: Would you kindly share the measured Activity for Cc1ccc2cccc(OCCCCOc3cccc4ccc(C)nc34)c2n1 ?
Result :: 1125

Query :: Repeat with Cc1ccc2cccc(OCCCCCOc3cccc4ccc(C)nc34)c2n1
Result :: 1020

Query :: Repeat with Clc1ccc(OCOc2ccc(Cl)c3cccnc23)c2ncccc12
Result :: 900

Query :: Repeat with Cc1ccc2cccc(OCOc3cccc4ccc(C)nc34)c2n1
Result :: 1205

# next molecule below
Query :: Would you kindly share the measured Activity for c1cnc2c(OCOc3cccc4cccnc34)cccc2c1 ?
Result :: 980

====

# Test system: Leishmania donovani
# procedure summary: Antileishmanial activity against Leishmania donovani MHOM/IN/1983/AG83 amastigotes by Giemsa staining
# Assay type: functional, organism-based
Overview of recorded IC50 for various compounds
Please respond with the number in µg/mL and leave the unit unwritten.

Query :: Would you kindly share the measured IC50 for Clc1ccc(OCOc2ccc(Cl)c3cccnc23)c2ncccc12 ?
Result :: 2.1

Query :: Repeat with Cc1ccc2cccc(OCOc3cccc4ccc(C)nc34)c2n1
Result :: 2.9

Query :: Repeat with Cc1ccc2cccc(OCCCCCOc3cccc4ccc(C)nc34)c2n1
Result :: 2.4

Query :: Repeat with Cc1ccc2cccc(OCCCCOc3cccc4ccc(C)nc34)c2n1
Result :: 2.7

Query :: Repeat with Cc1ccc2cccc(OCCCOc3cccc4ccc(C)nc34)c2n1
Result :: 10

Query :: Repeat with C[C@@H]1[C@H](O)[C@@H](C)/C=C/C=C/C=C/C=C/C=C/C=C/C=C/[C@H](O[C@@H]2O[C@H](C)[C@@H](O)[C@H](N)[C@@H]2O)C[C@@H]2O[C@](O)(C[C@@H](O)C[C@@H](O)[C@H](O)CC[C@@H](O)C[C@@H](O)CC(=O)O[C@H]1C)C[C@H](O)[C@H]2C(=O)O
Result :: 0.1

Query :: Repeat with N=C(N)c1ccc(OCCCCCOc2ccc(C(=N)N)cc2)cc1
Result :: 2.8

Query :: Repeat with c1cnc2c(OCOc3cccc4cccnc34)cccc2c1
Result :: 2.3

# next compound below
Query :: Would you kindly share the measured IC50 for O=c1ccc2cccc3c2n1CCO3 ?
Result :: 14
